Target: CYP3A4 (Homo sapiens, UniProt P08684)
Sequence (P08684 whole entry): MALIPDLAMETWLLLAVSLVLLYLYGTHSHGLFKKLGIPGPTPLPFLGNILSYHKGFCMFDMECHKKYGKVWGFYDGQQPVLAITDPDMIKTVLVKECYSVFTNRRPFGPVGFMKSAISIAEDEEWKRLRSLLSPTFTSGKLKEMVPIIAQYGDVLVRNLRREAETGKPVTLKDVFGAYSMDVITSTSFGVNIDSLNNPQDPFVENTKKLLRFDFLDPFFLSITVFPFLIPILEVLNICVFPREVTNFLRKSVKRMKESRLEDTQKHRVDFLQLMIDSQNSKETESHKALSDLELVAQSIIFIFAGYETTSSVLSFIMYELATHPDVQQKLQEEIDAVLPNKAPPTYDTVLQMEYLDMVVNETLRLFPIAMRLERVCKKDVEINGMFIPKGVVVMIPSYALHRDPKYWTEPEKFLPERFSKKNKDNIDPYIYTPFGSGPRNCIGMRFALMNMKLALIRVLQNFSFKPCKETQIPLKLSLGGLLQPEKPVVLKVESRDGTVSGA
Assay: Cytochrome P450 (CYP450) Inhibition Assay, CYP3A4 (Vivid fluorescence, BOMCC substrate)
Details: human, P450 Baculosomes (recombinant CYP3A4), probe BOMCC (Vivid substrate)
assayReadout: inhibition at 10 µM

>>> measvalue("Cc1nc(-c2ccc3c(c2)OCC32C(=O)N(Cc3ccccn3)c3ccccc32)no1 (stereo not shown)")
"< 50%"
>>> measvalue("CC(C)NC(=O)N1CCCC(CCN2C(=O)C3(COc4cc5c(cc43)OCO5)c3ccccc32)C1 (stereo not shown)")
"> 50%"
>>> measvalue("CC(C)N1CCC(CN2C(=O)C3(COc4cc5c(cc43)CCO5)c3ccccc32)CC1 (stereo not shown)")
"> 50%"
>>> measvalue("O=C1N(Cc2ccccn2)c2cccc(-c3cnc4ccccc4c3)c2C12COc1cc3c(cc12)OCCO3 (stereo not shown)")
"> 50%"
>>> measvalue("O=C1OCCN1CCN1C(=O)C2(COc3cc4c(cc32)CCO4)c2ccccc21 (stereo not shown)")
"> 50%"
>>> measvalue("Cc1noc2cc3c(cc12)C1(CO3)C(=O)N(Cc2ccccn2)c2ccccc21 (stereo not shown)")
"> 50%"
>>> measvalue("O=C1N(Cc2ccc(O)cn2)c2ccccc2[C@]12COc1cc3c(cc12)OCCO3")
"< 50%"
>>> measvalue("O=C1N(Cc2noc(C(F)F)n2)c2ccccc2C12COc1cc3c(cc12)OCO3 (stereo not shown)")
"> 50%"
>>> measvalue("Cc1noc2cc3c(cc12)C1(CO3)C(=O)N(Cc2ccccc2C(F)(F)F)c2ccccc21 (stereo not shown)")
"> 50%"
>>> measvalue("O=C1N(C[C@H]2CCCO2)c2ccccc2C12COc1cc3c(cc12)CCCO3 (stereo partly shown)")
"< 50%"
>>> measvalue("O=C1N(Cc2cc(F)ccn2)c2ccccc2C12COc1cc3c(cc12)OCCO3 (stereo not shown)")
"< 50%"
>>> measvalue("O=C1N(Cc2cc(-c3ccc(Cl)cc3)oc2C(F)(F)F)c2ccccc2C12COc1cc3c(cc12)OCO3 (stereo not shown)")
"< 50%"
>>> measvalue("O=C1Nc2cccc(-c3ccc(Oc4ccccc4)cc3)c2C12COc1cc3c(cc12)OCCO3 (stereo not shown)")
"> 50%"
>>> measvalue("O=C1N(Cc2ccccn2)c2ccccc2C12COc1cc3nccnc3cc12 (stereo not shown)")
"< 50%"
>>> measvalue("O=C1N(Cc2cccc(F)c2F)c2ccccc2C12COc1cc3c(cc12)OCCO3 (stereo not shown)")
"> 50%"
>>> measvalue("O=C1N(Cc2ccc3nonc3c2)c2ccccc2C12COc1cc3c(cc12)OCCO3 (stereo not shown)")
"> 50%"

====

Target: CYP3A4 (Homo sapiens, UniProt P08684)
Experiment: Cytochrome P450 (CYP450) Inhibition Assay, CYP3A4 (Vivid fluorescence, BOMCC substrate)
Conditions: human, P450 Baculosomes (recombinant CYP3A4), probe BOMCC (Vivid substrate)
inhibition at 10 µM for assorted compounds
assayReadout: inhibition at 10 µM

>>> measvalue("CN1C(=O)C2(COc3cc4c(cc32)OCCO4)c2c(NC(=O)C3CC3)cccc21 (centres unmarked)")
"< 50%"
>>> measvalue("CN1C(=O)C2(COc3cc4c(cc32)OCCO4)c2c(C(=O)NCc3ccc(F)cc3)cccc21 (centres unmarked)")
"< 50%"
>>> measvalue("CC(C)c1nc(CN2C(=O)C3(COc4cc5c(cc43)OCO5)c3c(-c4ccc(N(C)C)nc4)cccc32)cs1 (centres unmarked)")
"> 50%"
>>> measvalue("CC1(C)O[C@H]2[C@@H](O1)[C@@H](CN1C(=O)C3(COc4cc5c(cc43)OCCO5)c3ccccc31)O[C@@H]1OC(C)(C)O[C@@H]12 (some centres unmarked)")
"< 50%"
>>> measvalue("COc1ccc2c(c1)OCC21C(=O)N(CC2CCOCC2)c2ccccc21 (centres unmarked)")
"> 50%"
>>> measvalue("O=C1N(Cc2cnc(O)nc2)c2ccccc2C12COc1cc3c(cc12)OCCO3 (centres unmarked)")
"< 50%"
>>> measvalue("CNC(=O)c1cccnc1CN1C(=O)C2(COc3cc4c(cc32)OCCO4)c2ccccc21 (centres unmarked)")
"< 50%"
>>> measvalue("Cc1noc2cc3c(cc12)C1(CO3)C(=O)N(Cc2ncccc2C(F)(F)F)c2ccccc21 (centres unmarked)")
"> 50%"

Values compiled from patent US8263606B2.
